Data origin: patent US11034648B2

- measuredOn: E. coli gyrase (Escherichia coli, UniProt P0AES4+P0AES6)
- procedureText: E. coli gyrase supercoiling (sc) assay
- assayConditions: supercoiling assay kit, agarose gel quantification; read-out: Ec gyrase sc IC50
Listing: IC50 of selected molecules
metricName: IC50 (nM)

>>> assayvalue("CO[C@@H](C(N)=O)[C@H](NC(=O)c1ccc(NC(=O)c2ccc([N+](=O)[O-])cc2)cc1)C(=O)Nc1ccc(C(=O)Nc2ccc(C(=O)Nc3ccc(C(=O)O)cc3)c(O)c2OC(C)C)cc1 [Cys861-2, reference compound]")
220
>>> assayvalue("CC(C)Oc1c(NC(=O)c2ccc(NC(=O)[C@H](CC(N)=O)NC(=O)c3ccc(NC(=O)c4ccc(C5(C(F)(F)F)N=N5)cc4)cc3)cc2)ccc(C(=O)Nc2ccc(C(=O)O)cc2)c1O [Compound 37]")
16000
>>> assayvalue("CC(C)Oc1c(-n2cc(-c3ccc(NC(=O)[C@H](CC(N)=O)NC(=O)c4ccc(NC(=O)c5ccc(C#N)cc5)cc4)cc3)nn2)ccc(C(=O)Nc2ccc(C(=O)O)cc2)c1O [Compound 119]")
1500
>>> assayvalue("CC(C)Oc1c(NC(=O)c2ccc(NC(=O)[C@H](CC(N)=O)NC(=O)c3ccc(NC(=O)c4ccc([N+](=O)[O-])cc4)cc3)cc2)ccc(C(=O)Nc2ccc(C(=O)O)cc2)c1O [Compound 28]")
110
>>> assayvalue("C/C(=C\\c1ccc(C#N)cc1)C(=O)Nc1ccc(C(=O)N[C@@H](CC(N)=O)C(=O)Nc2ccc(C(=O)Nc3ccc(C(=O)Nc4ccc(C(=O)O)c(O)c4OC(C)C)c(O)c3OC(C)C)cc2)cc1 [Compound 124]")
200
>>> assayvalue("CO[C@@H](C(N)=O)[C@H](NC(=O)c1ccc(NC(=O)c2ccc(C#N)cc2)cc1)C(=O)Nc1ccc(C(=O)Nc2ccc(C(=O)Nc3ccc(C(=O)O)cc3)c(O)c2OC(C)C)cc1 [Compound 109]")
400
